B1: PTPN9 (parent)
chain: TQHLPRECLPENLGGYVKIDLATW

- Variants of: B1
- ASSAY_DETAILS: protein stability index of a GFP-peptide fusion (GPS, HEK-293T) (PSI 1-6); higher = more stable;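 also: lentivirally expressed fusions sorted by FACS into six bins by GFP to DsRed ratio, PSI derived from sequencing read proportions per bin multiplied by bin number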
- CONDITION: c terminus: a fixed tail appended
Class Yes: protein stability index at least 2. Class No: protein stability index below 2.

>>> qualitative_label("TQHLPRECLPLNLGGYVKIDLATW [E11L]")
"Yes"
>>> qualitative_label("TQFLPRECLPENLGGYVKIDLATW [H3F]")
"Yes"
>>> qualitative_label("TQHLPRECLPENLSGYVKIDLATW [G14S]")
"Yes"
>>> qualitative_label("TQHPPRECLPENLGGYVKIDLATW [L4P]")
"Yes"
>>> qualitative_label("TQGLPRECLPENLGGYVKIDLATW [H3G]")
"Yes"
>>> qualitative_label("TQHLPRECLPENLGGYVKIDLATQ [W24Q]")
"Yes"
>>> qualitative_label("TQHLPCECLPENLGGYVKIDLATW [R6C]")
"No"
>>> qualitative_label("TQHLPRECLPENLGGYQKIDLATW [V17Q]")
"Yes"
>>> qualitative_label("TQHLPRECLPEYLGGYVKIDLATW [N12Y]")
"Yes"
>>> qualitative_label("TQHLPRECLPENLGQYVKIDLATW [G15Q]")
"No"
>>> qualitative_label("TQHLPRECLPENLGGYVKIDLADW [T23D]")
"Yes"
>>> qualitative_label("TQHLPRECLPENLGGYVKFDLATW [I19F]")
"No"
>>> qualitative_label("TQHLPRECLIENLGGYVKIDLATW [P10I]")
"No"
>>> qualitative_label("TQHLPRECLPKNLGGYVKIDLATW [E11K]")
"No"
>>> qualitative_label("TQHLPRECLPENLKGYVKIDLATW [G14K]")
"No"
>>> qualitative_label("TQHLDRECLPENLGGYVKIDLATW [P5D]")
"Yes"
>>> qualitative_label("TQHLPRECLPEDLGGYVKIDLATW [N12D]")
"No"
>>> qualitative_label("TQHLKRECLPENLGGYVKIDLATW [P5K]")
"Yes"
>>> qualitative_label("TQSLPRECLPENLGGYVKIDLATW [H3S]")
"Yes"
>>> qualitative_label("TQHLPRECLPMNLGGYVKIDLATW [E11M]")
"Yes"
>>> qualitative_label("TQHLPRECLPENLGGYVKRDLATW [I19R]")
"Yes"
>>> qualitative_label("TQHLPREGLPENLGGYVKIDLATW [C8G]")
"No"
>>> qualitative_label("TQHLPRECLPENLGGYVKIKLATW [D20K]")
"No"
>>> qualitative_label("TQHLRRECLPENLGGYVKIDLATW [P5R]")
"Yes"
>>> qualitative_label("TQHLPRECLPENFGGYVKIDLATW [L13F]")
"No"
>>> qualitative_label("TQHLPRECLPENLGGYVKIDNATW [L21N]")
"Yes"
>>> qualitative_label("TQHLPRECLPENLGGYVLIDLATW [K18L]")
"Yes"
>>> qualitative_label("GQHLPRECLPENLGGYVKIDLATW [T1G]")
"Yes"
>>> qualitative_label("TQHLPRECLPENLEGYVKIDLATW [G14E]")
"Yes"
>>> qualitative_label("PQHLPRECLPENLGGYVKIDLATW [T1P]")
"Yes"
>>> qualitative_label("TQHLPRHCLPENLGGYVKIDLATW [E7H]")
"No"
>>> qualitative_label("TQHLPRECLPENLGGYVKIDLANW [T23N]")
"Yes"
>>> qualitative_label("TQHKPRECLPENLGGYVKIDLATW [L4K]")
"Yes"
>>> qualitative_label("TQHLPRECLPENLVGYVKIDLATW [G14V]")
"Yes"
>>> qualitative_label("TQHLPRECLPENLGGYVKIDLGTW [A22G]")
"No"
>>> qualitative_label("TQHLPRECLPENLGGYVKIYLATW [D20Y]")
"Yes"
>>> qualitative_label("EQHLPRECLPENLGGYVKIDLATW [T1E]")
"Yes"
>>> qualitative_label("TQHLPRECLPENQGGYVKIDLATW [L13Q]")
"Yes"
>>> qualitative_label("TQHLPRECLPENLGGYVKIDLAVW [T23V]")
"Yes"
>>> qualitative_label("TQHLPRECLPENLGGYVEIDLATW [K18E]")
"No"
